# system.tested: Galactokinase (Homo sapiens)
# assay.remarks: qHTS Assay for Inhibitors of Human Galactokinase (GALK): NCGC Sytravon Library Screen
# condition.description: recombinant GALK, Kinase-Glo ATP luminescence, 1 h; series mostly up to 57.5 µM
Hit rate of the full screen: of about 44,000 compounds, fewer than 10 were called active. About 2% were inconclusive and are not listed. Only a sample is shown.
parameter: outcome

Reference set (5 entries):
> print(dat)
                                   compound                 system.tested  observed.result
1  CCc1nn(CCCC(=O)NCc2ccc(C)cc2)c(=O)c2cc3occc3n12  Galactokinase (Homo sapiens)         inactive
2  COCCCNC(=O)C1CCC(CNS(=O)(=O)c2ccc(OC)cc2)CC1 (stereo not given)  Galactokinase (Homo sapiens)         inactive
3  O=C(NCCc1csc(-c2ccc(C(F)(F)F)cc2)n1)C(=O)Nc1ccc(F)c(Cl)c1  Galactokinase (Homo sapiens)         inactive
4  O=C(NCC(c1cccnc1)N1CCc2ccccc21)c1cccc(C(F)(F)F)c1 (stereo not given)  Galactokinase (Homo sapiens)         inactive
5  CCN(CC)CCNC(=O)c1cc2c(=O)oc3ccc(C)cc3c2s1  Galactokinase (Homo sapiens)         inactive

The compound `CCCN(CCC)C(=O)Cn1c(=O)n(-c2ccc(Cl)cc2)c(=O)c2c3c(sc21)CCCCC3` showed outcome equal to inactive

Input CC(=O)c1ccc(NC(c2ccc(F)cc2)c2nnc(-c3ccccc3)o2)cc1 (stereo not given) . Output outcome: inactive

// field: outcome; key: `O=C(NCc1ccccc1)C1CCN(S(=O)(=O)c2ccc3[nH]c(=O)ccc3c2)CC1` ; value = inactive

Recorded outcome (compound `Cc1ccc(-c2nnc(SCC(=O)NCc3ccccc3)nc2-c2ccc(C)cc2)cc1` ): inactive

Briefly, outcome measured for `O=C(CS(=O)(=O)c1cccc2nsnc12)N1CCN(c2cccc(Cl)c2)CC1` : inactive

Reported outcome for COc1ccc(NC(=O)CSc2nc3ccccc3n2CC(=O)N2CCCCC2C)cc1 (stereo not given) was inactive

The measured outcome associated with `CCSc1nnc(NC(=O)c2cc(=O)c3cc(C)c(C)cc3o2)s1` reads inactive

Recorded result, `CCN(c1ccc(Cl)cc1)S(=O)(=O)c1nnc(NC(=O)c2ccco2)s1` , outcome: inactive

The compound listed as `CCc1nc(-c2cc(S(=O)(=O)N3CCN(c4ccc(OC)cc4)CC3)ccc2OC)no1` shows outcome equal to inactive

response.value for `Cc1ccc(CNS(=O)(=O)c2ccc(C(=O)N(C)C)s2)cc1` (field: outcome) = inactive
